All values here come from patent US20200069691A1.

Listed compounds paired with reported IC50
Biological target: wild-type HIV-1 protease (Human immunodeficiency virus type 1 group M subtype B, UniProt P04585)

COMPOUND: COC(=O)N1CCN(C(=O)c2cccc(CN3C(=N)NC(c4ccc(F)cc4)(c4cccc(C(N)=O)c4)C3=O)c2)CC1 (stereo not drawn)
IC50: 83.3 nM
//
COMPOUND: Cn1cc(-c2ncc3c(n2)CN(C(=O)c2cc(CN4C(=N)N[C@](CCCC(F)(F)F)(c5ccc(F)cc5)C4=O)ccc2C(F)(F)F)C3)cn1
IC50: 1.95 nM
//
COMPOUND: CC(C)C[C@]1(c2ccccc2)NC(=N)N([C@H](C)c2cccc(C(=O)N3CCN(C)C(=O)C3)c2)C1=O
IC50: 64.8 nM

###

Target: UniProtKB P04585
pIC50: −log10 of the molar value.
# pIC50 >= 8 gives true (1), anything below gives false (0)

MOLECULE: N=C1NC(c2ccc(F)cc2)(c2ccc(F)cc2)C(=O)N1Cc1cccc(C(=O)N2Cc3cc(F)c(F)cc3C2)c1
QUALITATIVE_LABEL: true (1)
//
MOLECULE: COC(=O)Nc1ncc2c(n1)CN(C(=O)c1cc(CN3C(=N)NC(CCC(C)C)(c4ccccc4)C3=O)ccc1C(F)(F)F)C2 (stereo not shown)
QUALITATIVE_LABEL: true (1)
//
MOLECULE: CS(=O)(=O)Nc1cccc(-c2ncc3c(n2)CN(C(=O)c2cc(CN4C(=N)N[C@](CCCC(F)(F)F)(c5ccc(F)cc5)C4=O)ccc2C(F)(F)F)C3)c1
QUALITATIVE_LABEL: true (1)
//
MOLECULE: CC(C)CC1(c2ccccc2)NC(=N)N(Cc2cccc(C(=O)N3CCN(c4ccccc4Cl)CC3)c2)C1=O (stereo not shown)
QUALITATIVE_LABEL: false (0)
//
MOLECULE: COC(=O)N1CCN(C(=O)c2cccc(CN3C(=N)NC(c4ccc(F)cc4)(c4cccc(C#N)c4)C3=O)c2)CC1 (stereo not shown)
QUALITATIVE_LABEL: false (0)
//
MOLECULE: CC(C)CCC1(c2cccc(-c3cccnc3)c2)NC(=N)N(Cc2cccc(C(=O)N3Cc4nccnc4C3)c2)C1=O (stereo not shown)
QUALITATIVE_LABEL: false (0)
//
MOLECULE: CCCC1(c2ccccc2)NC(=N)N(Cc2cccc(C(=O)N3Cc4cnc(C)nc4C3)c2)C1=O (stereo not shown)
QUALITATIVE_LABEL: false (0)
//
MOLECULE: CC(C)CC(c1ccc(C(F)(F)F)c(C(=O)N2CCn3c(nnc3C(F)(F)F)C2)c1)N1C(=N)N[C@@](C[C@@H]2CCOC2)(c2ccc(F)cc2)C1=O (stereo partly shown)
QUALITATIVE_LABEL: true (1)

###

Target: wild-type HIV-1 protease (Human immunodeficiency virus type 1 group M subtype B, UniProt P04585)
pIC50: −log10 of the molar value.
# pIC50 >= 8 gives 1, anything below gives -1

MOLECULE: CC(C)C[C@@]1(c2ccccc2)NC(=N)N(Cc2ccc(C(F)(F)F)c(C(=O)N3Cc4nccnc4C3)c2)C1=O [Compound 174]
QUALITATIVE_LABEL: -1
//
MOLECULE: N=C1NC(c2ccccc2)(c2ccccc2)C(=O)N1Cc1cccc(C(=O)N2CCn3cc(C(=O)C4CC4)nc3C2)c1 [Compound 250]
QUALITATIVE_LABEL: -1
//
MOLECULE: N=C1N[C@](CCCC(F)(F)F)(c2ccc(F)cc2)C(=O)N1Cc1ccc(C(F)(F)F)c(C(=O)N2Cc3cnc(-c4cnn5c4CCC5)nc3C2)c1 [Compound 34]
QUALITATIVE_LABEL: 1
//
MOLECULE: CC(C)CCC(c1ccc(C(F)(F)F)c(C(=O)N2Cc3nccnc3C2)c1)N1C(=N)N[C@](CCC(C)C)(c2ccccc2)C1=O (some centres unmarked) [Compound 9]
QUALITATIVE_LABEL: 1
//
MOLECULE: CC(C)CC1(c2cccc(F)c2)NC(=N)N(Cc2cccc(C(=O)N3Cc4ccccc4C3)c2)C1=O (centres unmarked) [Compound 264]
QUALITATIVE_LABEL: -1
//
MOLECULE: CC(C)CCC1(c2ccccc2)NC(=N)N(Cc2cccc(C(=O)N3CCN(C)C(=O)C3)c2)C1=O (centres unmarked) [Compound 283]
QUALITATIVE_LABEL: -1
//
MOLECULE: N=C1NC(c2ccccc2)(c2ccccc2)C(=O)N1Cc1cccc(C(=O)N2CCn3ccnc3C2)c1 [Compound 339]
QUALITATIVE_LABEL: -1
//
MOLECULE: N=C1N[C@](CCCC(F)(F)F)(c2ccc(F)cc2)C(=O)N1Cc1ccc(C(F)(F)F)c(C(=O)N2Cc3cnc(-c4cc(F)cc(F)c4)nc3C2)c1 [Compound 121]
QUALITATIVE_LABEL: -1
//
MOLECULE: N=C1N[C@](CCCC(F)(F)F)(c2ccc(F)cc2)C(=O)N1Cc1ccc(C(F)(F)F)c(C(=O)N2Cc3cnc(-c4ccc5ncnn5c4)nc3C2)c1 [Compound 32]
QUALITATIVE_LABEL: 1
//
MOLECULE: CC(C)CCC1(c2ccccc2)NC(=N)N(Cc2cccc(C(=O)N3CCC(n4c(=O)[nH]c5ccccc54)CC3)c2)C1=O (centres unmarked) [Compound 314]
QUALITATIVE_LABEL: -1
//
MOLECULE: Cc1nc2c([nH]1)CN(C(=O)c1cccc(CN3C(=N)NC(CC(C)C)(c4ccccc4)C3=O)c1)C2 (centres unmarked) [Compound 274]
QUALITATIVE_LABEL: -1
//
MOLECULE: CC(C)CC[C@]1(c2ccc(F)cc2)NC(=N)N(C(CCCc2ccccc2)c2ccc(C(F)(F)F)c(C(=O)N3Cc4nccnc4C3)c2)C1=O (some centres unmarked) [Compound 2]
QUALITATIVE_LABEL: 1
//
MOLECULE: CC(C)CCC(c1ccc(C(F)(F)F)c(C(=O)N2CCn3c(nnc3C(F)(F)F)C2)c1)N1C(=N)N[C@](CCC(C)C)(c2ccccc2)C1=O (some centres unmarked) [Compound 23]
QUALITATIVE_LABEL: 1
//
MOLECULE: N=C1NC(c2ccccc2)(c2ccccc2)C(=O)N1Cc1cc(C(=O)N2Cc3nccnc3C2)cs1 [Compound 407]
QUALITATIVE_LABEL: -1
//
MOLECULE: N=C1N[C@](CCC2CC2)(c2ccc(F)cc2)C(=O)N1C(CN1CCCC1=O)c1ccc(C(F)(F)F)c(C(=O)N2Cc3nccnc3C2)c1 (some centres unmarked) [Compound 7]
QUALITATIVE_LABEL: 1
//
MOLECULE: N=C1NC(c2ccccc2)(c2ccccc2)C(=O)N1Cc1cccc(C(=O)N2CCC(Oc3ccccc3)CC2)c1 [Compound 333]
QUALITATIVE_LABEL: -1
//
MOLECULE: N=C1NC(c2ccccc2)(c2ccccc2)C(=O)N1Cc1cccc(C(=O)N2CCc3ccc(F)cc3C2)c1 [Compound 269]
QUALITATIVE_LABEL: -1
//
MOLECULE: Cn1ncc2cc(-c3ncc4c(n3)CN(C(=O)c3cc(CN5C(=N)N[C@](CCCC(F)(F)F)(c6ccc(F)cc6)C5=O)ccc3C(F)(F)F)C4)ccc21 [Compound 43]
QUALITATIVE_LABEL: 1

###

Listed molecules paired with reported IC50
Biological target: wild-type HIV-1 protease (Human immunodeficiency virus type 1 group M subtype B, UniProt P04585)
ASSAY_ENDPOINT: IC50 (µM)

MOLECULE: CC(=O)N1CCN(C(=O)c2cc(F)cc(CN3C(=N)NC(c4ccccc4)(c4ccccc4)C3=O)c2)CC1
MEASURED_VALUE: 0.057
--
MOLECULE: N=C1N[C@](CCC2CC2)(c2cccc(F)c2)C(=O)N1Cc1ccc(C(F)(F)F)c(C(=O)N2CCn3c(nnc3C(F)(F)F)C2)c1
MEASURED_VALUE: 0.0238
--
MOLECULE: COC(=O)N1CCN(C(=O)c2cc(CN3C(=N)NC(c4ccc(F)cc4)(c4ccc(F)cc4)C3=O)ccc2Cl)CC1
MEASURED_VALUE: 0.0124
--
MOLECULE: CC(C)CC1(c2ccccc2)NC(=N)N(Cc2ccc(C(F)(F)F)c(C(=O)N3Cc4nccnc4C3)c2)C1=O (stereo not shown)
MEASURED_VALUE: 0.00323
--
MOLECULE: CC(C)CCC1(c2ccc(F)cc2)NC(=N)N(Cc2ccc(C(F)(F)F)c(C(=O)N3C[C@@H]4ON=C(Nc5ccccc5)[C@@H]4C3)c2)C1=O (stereo partly shown)
MEASURED_VALUE: 0.0597
--
MOLECULE: CC(C)CCC1(c2ccccc2)NC(=N)N(Cc2ccc(C(F)(F)F)c(C(=O)N3CCC(C)(C)C3)c2)C1=O (stereo not shown)
MEASURED_VALUE: 0.0634
--
MOLECULE: N=C1NC(c2ccccc2)(c2ccccc2)C(=O)N1Cc1cccc(C(=O)N2CCN(C(=O)OCc3ccccc3)CC2)c1
MEASURED_VALUE: 0.0232
